Quick reference for Percent Effect among some compounds
Test system: Trypanosoma brucei
Assay: Trypanosoma brucei 72 hour study
Format: functional, organism-based
Design: scale not given: in the data most compounds retested in dose-response had high values
Settings: 30 µM; 30.03 µM
The whole screen tested about 66,000 compounds, of which about 960 (1.5%) showed an effect of 50% or more. This excerpt belongs to a sample that is enriched for strong results.
VALUE TYPE: Percent Effect (%)

> print(dat)
                                    compound  unit.annotation  result.value
 1  Cn1ccc(CNC(=O)Nc2ccc(S(=O)(=O)C(F)F)cc2)c1                %        -7.299
 2   CCn1cnnc1CN(C)Cc1nc(-c2cc(OC)ccc2F)oc1C                %        -24.61
 3   CCCc1cc(=O)[nH]c(-n2nc(-c3cccs3)cc2N)n1                %        -29.48
 4  Cn1cc(CN2CCC3(CCN(c4cnn(C)c4)C3=O)C2)cn1.O=C(O)C(F)(F)F (stereo not drawn)                %        -6.498
 5  O=C(Nc1cccnc1)[C@@H]1CCO[C@@H]2CCN(Cc3cccnc3)C[C@@H]21.O=C(O)C(F)(F)F.O=C(O)C(F)(F)F.O=C(O)C(F)(F)F                %        -27.43
 6    Cc1cc(=O)[nH]c(-n2nc(-c3ccccc3)cc2N)n1                %        -3.849
 7  CCc1c(C)nc(-n2nc(C3CC3)cc2NC(C)=O)[nH]c1=O                %        -1.646
 8  CC(=O)Nc1cc(C2CC2)nn1-c1nc(C)c(C)c(=O)[nH]1                %        -12.81
 9  CCc1cc(=O)[nH]c(-n2nc(C3CC3)cc2NC(=O)C2CC2)n1                %         97.36
10         CC(C)c1cc(=O)[nH]c(C(C)(C)N)n1.Cl                %        -29.56
11                    Brc1cccnc1OC1CCNCC1.Cl                %        -18.95
12  CN(C)c1ccc(CNC(=O)Nc2ccc(S(=O)(=O)C(F)F)cc2)cc1                %         71.22
13  Cn1cc(N2CCC3(CCCN(Cc4ccc(F)cc4)C3)C2=O)cn1.O=C(O)C(F)(F)F (stereo not drawn)                %         66.19

* * *

Tested on: Trypanosoma brucei
Experiment: Trypanosoma brucei 72 hour study
Type: functional, organism-based
Design: scale not given: in the data most compounds retested in dose-response had high values
Conditions: 30.3 µM; […]
The campaign covered roughly 66,000 compounds. About 960 (1.5%) showed an effect of 50% or more. Only a selection was taken, and strong results are over-represented in it overall.
VALUE TYPE: Percent Effect (%)

> print(dat)
                                    molecule      value.type  result.value
 1  CCn1nccc1C(=O)NC(Cn1cccn1)C(C)(C)C (stereo unspecified)  Percent Effect        -6.087
 2             Cn1cnnc1-c1ccnc(NCc2ccccc2)c1  Percent Effect         5.527
 3  CN(C)CCOCc1nnc2n1CCN(Cc1ccco1)CC2.O=C(O)C(F)(F)F.O=C(O)C(F)(F)F  Percent Effect        -5.145
 4                COc1ncccc1CNC(=O)NCc1ccco1  Percent Effect         11.99
 5  CN1CCN(C(=O)C2CCCN(c3cccnn3)C2)CC1 (stereo unspecified)  Percent Effect           101
 6  O=C(O)C(F)(F)F.O=C(O)C(F)(F)F.c1cncc(CN2Cc3nccn3CC(Cn3cccn3)C2)c1 (stereo unspecified)  Percent Effect        -81.67
 7  CC(C)Nc1cc(-c2c[nH]nc2C2CCN(C(=O)C3CC3)C2)ccn1 (stereo unspecified)  Percent Effect         99.82
 8  Cc1cnc(N2CCc3c(CN(C)Cc4ccco4)cncc3C2)nc1  Percent Effect         5.943
 9  Cc1cc2occ(CC(=O)N3CCC4(CCCN(C)C4=O)C3)c2cc1Cl (stereo unspecified)  Percent Effect         2.516
10  CO[C@H]1CCN(c2nnc(C)s2)C[C@@H]1Cc1ccccc1.O=C(O)C(F)(F)F  Percent Effect         12.72
11  Cn1cc(N2C(=O)CC[C@@H]3[C@H]2CCN3CC2CCOCC2)cn1.O=C(O)C(F)(F)F  Percent Effect        -7.648
12  CC(C)CNc1cc(-c2c[nH]nc2C2CCN(C(=O)C3CC3)C2)ccn1 (stereo unspecified)  Percent Effect         100.1
13  O=C(O)C(F)(F)F.O=C(O)C(F)(F)F.c1cncc(-c2ccc3c(c2)CCC32CCN(Cc3nccs3)CC2)c1  Percent Effect         13.64
14  Cn1cc(C(=O)NC(Cn2cccn2)C(C)(C)C)cn1 (stereo unspecified)  Percent Effect        -4.857
15  O=C(NC1CC1)C1=CC2(CCN(CCO)CC2)c2ccccc21.O=C(O)C(F)(F)F  Percent Effect        -19.93
16  COc1ccc(C2(NCc3c(C)nc4c(C)cccn34)CCCC2)cc1.O=C(O)CC(O)(CC(=O)O)C(=O)O  Percent Effect        -8.607
17     COc1ccc(NC(=O)Cn2nc(C)c(C)cc2=O)cc1OC  Percent Effect        -10.01
18  CCc1ncc(CN2CCOC(Cc3cccc(F)c3)C2)cn1 (stereo unspecified)  Percent Effect        -57.81
19  Cc1ccc(-c2ccc(CC3NCCN(C)C3=O)cc2)cc1.Cl (stereo unspecified)  Percent Effect        -13.76
20  O=C(O)C(F)(F)F.O=C(O)C(F)(F)F.c1cncc(-c2ccc3c(c2)CCC32CCN(Cc3ccco3)CC2)c1  Percent Effect         53.48
21    COc1ccc(NC(=O)Cn2nc(C)c(C(C)=O)c2C)cc1  Percent Effect         101.9
22  CCN1CCN2CCCN(S(=O)(=O)c3ccc(S(C)(=O)=O)cc3)C2C1=O (stereo unspecified)  Percent Effect         30.28
23        NC(=O)c1c[nH]nc1NC(=O)c1cccc(Cl)c1  Percent Effect        -12.02
24  Cc1cccc(CN2C(=O)CCC23CCN(Cc2cccn2C)CC3)n1.O=C(O)C(F)(F)F.O=C(O)C(F)(F)F  Percent Effect        -13.68
25  Cc1nnc(N2CC[C@@H](OCC3CC3)[C@@H](Cc3ccccc3)C2)s1.O=C(O)C(F)(F)F  Percent Effect         100.5
26  CO[C@@H]1CCN(c2nnc(C)s2)C[C@@H]1Cc1ccccc1.O=C(O)C(F)(F)F  Percent Effect        -5.303
27              CCc1nc(CSc2nnc(N)n2C2CC2)no1  Percent Effect        -10.47
28        COc1ccc2c(c1)c(-c1nc(C)ncc1CN)cn2C  Percent Effect        -32.27
29  Cc1ccc(N2CCc3c(CN(C)Cc4ccco4)cncc3C2)nn1.Cl.Cl  Percent Effect        -4.486
30  COCC(=O)NCc1cnc(C)nc1-c1cn(C)c2ccc(OC)cc12  Percent Effect        -5.457
31  CN(C)S(=O)(=O)N1CCC(c2n[nH]cc2-c2ccnc(N)c2)C1 (stereo unspecified)  Percent Effect        -8.179
32     CC(=O)c1c(C)nn(CC(=O)Nc2ccc(F)cc2)c1C  Percent Effect        -35.96
33  Cl.OC[C@H]1CC[C@]2(CC1)CN(Cc1ccsc1)Cc1ccccc1O2  Percent Effect         39.16
34  CCN1CCN2CCCN(S(=O)(=O)c3cccc(F)c3)C2C1=O (stereo unspecified)  Percent Effect         65.65
35    COCC(=O)N1CCN(Cc2cc(-c3ccncc3)nn2C)CC1  Percent Effect       -0.9188
36  Cc1ccnn1CCC(=O)N1CCCC1c1cc2cccnc2[nH]1.Cl (stereo unspecified)  Percent Effect        -12.68
37  CS(=O)(=O)NCc1cncc2c1CCN(C(=O)N1CCCC1)C2.Cl  Percent Effect        -11.25
38  Cc1cc2c(=O)n3c(nc2s1)CCN(Cc1cncn1C)CC3.Cl  Percent Effect         6.762
39  CCN1CCN2CCCN(S(=O)(=O)c3ccc(C)cc3C)C2C1=O (stereo unspecified)  Percent Effect         8.732
40        CN1CCN(C(=O)C2CCN(c3cccnn3)CC2)CC1  Percent Effect         -20.3
41  CCCS(=O)(=O)N1C[C@H]2C[C@H](C(=O)N3CCOCC3)[C@@H](C1)O2  Percent Effect        -5.473
